tested on: HeLa; assay: Antitumor activity against HeLa cells; type: functional, cell-based; settings: Homo sapiens
PROPERTY NAME: pIC50
To interpret pIC50, take it as minus log10 of a concentration measured in moles per litre.

Qu. Item under review: O=c1[nH]c(=O)c([C@@H]2O[C@H](CO)[C@@H](O)[C@H]2O)co1 . Reported pIC50?
Ans. 6.30

Data origin, for the record: ChEMBL document CHEMBL1121727
